# EXPERIMENTAL_TARGET: T1, human TSH receptor (full length), coated on tubes (human, UniProt P16473 22-764)
# T1 construct: TSHR coated tubes as described in WO2004/050708A2; Exact preparation on the tubes is not detailed here; also called thyroid stimulating hormone receptor
# EXPERIMENTAL_PROTOCOL: competition with 125I-K1-18 IgG on TSHR coated tubes; 30 µg/mL, diluted in assay buffer
Let's look at some binders and their measured Inhibition of binding (%).
Unit % implied. Number only.

binder="K1-70 IgG (antibody, V domains shown) VH: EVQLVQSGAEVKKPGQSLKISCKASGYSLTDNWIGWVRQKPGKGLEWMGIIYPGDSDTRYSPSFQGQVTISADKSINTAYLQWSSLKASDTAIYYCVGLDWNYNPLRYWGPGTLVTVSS VL: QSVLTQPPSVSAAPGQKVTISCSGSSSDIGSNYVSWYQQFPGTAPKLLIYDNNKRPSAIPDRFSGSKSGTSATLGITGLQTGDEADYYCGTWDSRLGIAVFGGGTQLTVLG" unit_symbol=% observed_measurement=93.1

Q. Consider the binder shown here: K1-70 Fab (Fab, V domains shown) VH: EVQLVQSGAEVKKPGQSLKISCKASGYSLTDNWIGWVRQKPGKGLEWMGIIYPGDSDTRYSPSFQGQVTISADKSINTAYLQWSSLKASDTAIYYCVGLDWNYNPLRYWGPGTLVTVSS VL: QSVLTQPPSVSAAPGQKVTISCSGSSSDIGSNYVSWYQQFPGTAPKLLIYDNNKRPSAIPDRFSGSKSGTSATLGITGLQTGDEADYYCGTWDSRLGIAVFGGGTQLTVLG What is its recorded Inhibition of binding (%)?
A. 92.2

Q. Consider the binder shown here: K1-18 IgG (antibody, V domains shown) VH: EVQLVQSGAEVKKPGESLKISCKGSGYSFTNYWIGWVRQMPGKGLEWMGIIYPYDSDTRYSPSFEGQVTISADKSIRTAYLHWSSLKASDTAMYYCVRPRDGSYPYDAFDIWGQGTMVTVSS VL: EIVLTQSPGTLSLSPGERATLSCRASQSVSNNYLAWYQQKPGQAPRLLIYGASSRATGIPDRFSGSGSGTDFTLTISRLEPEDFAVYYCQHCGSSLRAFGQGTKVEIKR What is its recorded Inhibition of binding (%)?
A. 93.8

Q. Consider the binder shown here: K1-18 Fab (Fab, V domains shown) VH: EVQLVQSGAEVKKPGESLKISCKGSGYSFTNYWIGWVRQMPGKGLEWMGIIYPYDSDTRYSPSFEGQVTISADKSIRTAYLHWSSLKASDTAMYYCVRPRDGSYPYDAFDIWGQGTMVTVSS VL: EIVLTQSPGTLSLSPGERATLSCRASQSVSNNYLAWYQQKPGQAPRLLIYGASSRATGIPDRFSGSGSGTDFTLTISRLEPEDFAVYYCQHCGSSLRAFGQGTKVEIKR What is its recorded Inhibition of binding (%)?
A. 83

Origin of measurements: patent US20110300138A1
